# experimental_system: thrombin (Homo sapiens)
# assay_comment: Effect of test compounds on thrombin activity: hydrolysis rate of chromogenic (Chromozim TH) or fluorogenic (BOC-Ala-Pro-Arg-AMC) substrate
# Assay type: biochemical
# assay_context: concentration of compound 50 nM
Outcome label depends on inhibition at 0.05 µM relative to 80%: at/above gives 1, below gives 0.

{"compound": "Cc1cc(OCCC[n+]2ccc(N)cc2)cc(OS(=O)(=O)c2ccccc2F)c1.[I-] [HC_029s_IOC]", "label": 0}
{"compound": "Cc1cc(OCCSC(=N)N)cc(OS(=O)(=O)c2ccccc2)c1.I [HC-020s-IOC]", "label": 0}
{"compound": "Cc1cc(OCC[n+]2ccc(N)cc2)cc(OS(=O)(=O)c2ccc(Cl)cc2)c1 [HC_039s_IOC]", "label": 1}
{"compound": "Cc1cc(OCC[n+]2ccc(N)nc2)cc(OS(=O)(=O)c2ccccc2)c1.[I-] [HC_047s_IOC]", "label": 0}
{"compound": "Cc1cc(OCC[n+]2ccc(N)cc2)cc(OS(=O)(=O)c2ccccc2)c1 [HC-019s-IOC]", "label": 1}
{"compound": "Cc1cc(OCC[n+]2ccc(N)cc2)cc(OS(=O)(=O)c2ccccc2S(C)(=O)=O)c1 [HC_036s_IOC]", "label": 1}
{"compound": "Cc1cc(OCCSC(=N)N)cc(OS(=O)(=O)c2ccccc2S(C)(=O)=O)c1 [HC_040s_IOC]", "label": 0}
{"compound": "Cc1cc(OCC[n+]2ccc(N)cc2)cc(OS(=O)(=O)c2ccccc2Cl)c1 [HC-025s-IOC]", "label": 1}
{"compound": "Cc1cc(OCCCSC(=N)N)cc(OS(=O)(=O)c2ccccc2F)c1.I [HC_031s_IOC]", "label": 0}
{"compound": "Cc1ccc(S(=O)(=O)Oc2cc(C)cc(OCC[n+]3ccc(N)cc3)c2)cc1 [HC_038s_IOC]", "label": 1}
{"compound": "Cc1cc(OCC[n+]2ccc(N)cc2)cc(OS(=O)(=O)c2ccccc2F)c1 [HC_037s_IOC]", "label": 1}
{"compound": "Cc1cc(OCCC[n+]2ccsc2N)cc(OS(=O)(=O)c2ccccc2F)c1.[I-] [HC_030s_IOC]", "label": 0}
{"compound": "C/N=C(/N)SCCCOc1cc(C)cc(OS(=O)(=O)c2ccccc2Cl)c1.I [HC_032s_IOC]", "label": 0}
